Each recorded value in this set is attributed to the supplement of paper PMC11451515.

Listing: cell viability of selected compounds
- System: P12-Ichikawa
- TEST: cell viability relative to DMSO control; higher = less cytotoxic
- EXPERIMENTAL_SETUP: HPLM + 10% dialyzed FBS; 48 h; 0.00234 µM
PARAMETER_MEASURED: cell viability (%)

SMILES_STR	ASSAY_RESULT
Cc1nc(Nc2n[nH]c3c2CN(C(=O)N[C@H](CN(C)C)c2ccccc2)C3(C)C)c2sccc2n1	84.7
COc1cc(O)c2c(c1)C(=O)c1cc(C)cc(O)c1C2=O	120
COc1ccc2cc1Oc1ccc(cc1)C[C@H]1c3cc(c(OC)cc3CCN1C)Oc1c(OC)c(OC)cc3c1[C@H](C2)N(C)CC3	122
NC/1=N/C(=O)N(/C=N1)[C@@H]2O[C@H](CO)[C@@H](O)[C@H]2O	104
COc1cc(CNC(=O)CCCC/C=C/C(C)C)ccc1O	99.4
C1CCN2C[C@H]3C[C@H](\C=C/4CCCN[C@@H]34)[C@H]2C1	108
CCOc1ccc(Cc2cc([C@@H]3O[C@H](CO)[C@@H](O)[C@H](O)[C@H]3O)ccc2Cl)cc1	124
CC(C)(C)[C@H](NC(=O)c1ccc(N)c(Cl)c1)C(=O)N1CCC[C@H]1C(=O)N[C@H](C#N)CC(=O)O	126
